biological target: Sphingosine kinase 1 (Homo sapiens, UniProt Q9NYA1); assay: Inhibition of recombinant human SphK1 using NBD-sphingosine as substrate after 2 hrs in presence of ATP by HPLC method
Sequence (Q9NYA1 whole entry, the tested form may be a part): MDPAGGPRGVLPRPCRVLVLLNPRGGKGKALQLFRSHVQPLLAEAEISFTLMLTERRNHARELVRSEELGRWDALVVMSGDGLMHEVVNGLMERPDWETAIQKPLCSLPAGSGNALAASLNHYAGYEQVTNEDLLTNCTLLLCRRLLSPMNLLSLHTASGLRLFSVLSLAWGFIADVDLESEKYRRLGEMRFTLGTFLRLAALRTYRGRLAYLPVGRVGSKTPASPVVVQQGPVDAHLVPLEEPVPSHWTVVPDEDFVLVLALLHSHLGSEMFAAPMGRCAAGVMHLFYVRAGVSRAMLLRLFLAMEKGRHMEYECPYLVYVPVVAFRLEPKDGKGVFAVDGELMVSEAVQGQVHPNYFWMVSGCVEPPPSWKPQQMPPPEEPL
attributeMeasured: pIC50
Reminder that pIC50 is minus the log10 of a molar concentration.

Query: Given the molecule CC(=O)N(C1=C(Cl)C(=O)c2ccccc2C1=O)C1CCCCC1 , what is its reported pIC50?
Response: 5.70

* * *

biological target: Sphingosine kinase 1 (Homo sapiens); test: Inhibition of human SphK1 using sphingosine as substrate after 15 to 20 mins in presence of [gamma-32P]ATP by Cerenkov counting method
attributeMeasured: IC50

Query: // IC50 lookup, key: CCCCCCCCc1ccc(CC[C@@](N)(CO)COC)cc1
Response: > 50 µM

* * *

molecular target: Sphingosine kinase 1 (Homo sapiens); assay: Inhibition of recombinant N-terminal GST-tagged human SphK1 (1 to 384 residues) expressed in baculovirus expression system using sphingosine as substrate after 1 hr in presence of ATP by off-chip mobility shift assay
attributeMeasured: IC50 (nM)

# annotated cases, reported IC50 shown
{"structureNotation": "N[C@@H]1CO[C@@H](CCCCCCCCCOCC2CCCCC2)[C@H]1O", "attributeMeasured": "IC50", "unitsText": "nM", "result": 670}
{"structureNotation": "N[C@@H]1CO[C@@H](CCCCCCCCCCOCC2CCCCC2)[C@H]1O", "attributeMeasured": "IC50", "unitsText": "nM", "result": 220}
{"structureNotation": "N[C@@H]1CO[C@@H](CCCCCCCCOCC2CCCCC2)[C@H]1O", "attributeMeasured": "IC50", "unitsText": "nM", "result": 2800}

P. CC(C)COCCCCCCCCCCC[C@@H]1OC[C@@H](N)[C@@H]1O
Q. N[C@@H]1CO[C@@H](CCCCCCCCCCCOCC2CCCCC2)[C@H]1O
Query: Lower value of IC50 belongs to which: P or Q ? The response must carry the label of the picked entry.
Response: Q

* * *

molecular target: Sphingosine kinase 1 (Homo sapiens); assay: Inhibition of human SphK1 using sphingosine as substrate in presence of [gamma-32P]ATP
pIC50: −log10 of the molar value.
attributeMeasured: pIC50

Query: Reported pIC50, compound CCCCOc1ccc(CC/C=C2\SC(=O)N(CCN)C2=O)cc1 : ____
Response: < 5.00

* * *

molecular target: Sphingosine kinase 1 (Homo sapiens, UniProt Q9NYA1); assay: Inhibition of recombinant human SphK1 expressed in baculovirus infected sf9 cells using D-erythro-sphingosine as substrate in presence of [gamma-33P]ATP by scintillation counting method
attributeMeasured: Ki (nM)
# number only, unit nM dropped from output

Query: What measured Ki goes with CCCCCCCCCCCCc1ccc(-c2noc(C3(C(=N)N)CC3)n2)cc1 ?
Response: 40

* * *

Target: UniProt:Q9NRA0
Sequence (Q9NRA0 whole entry): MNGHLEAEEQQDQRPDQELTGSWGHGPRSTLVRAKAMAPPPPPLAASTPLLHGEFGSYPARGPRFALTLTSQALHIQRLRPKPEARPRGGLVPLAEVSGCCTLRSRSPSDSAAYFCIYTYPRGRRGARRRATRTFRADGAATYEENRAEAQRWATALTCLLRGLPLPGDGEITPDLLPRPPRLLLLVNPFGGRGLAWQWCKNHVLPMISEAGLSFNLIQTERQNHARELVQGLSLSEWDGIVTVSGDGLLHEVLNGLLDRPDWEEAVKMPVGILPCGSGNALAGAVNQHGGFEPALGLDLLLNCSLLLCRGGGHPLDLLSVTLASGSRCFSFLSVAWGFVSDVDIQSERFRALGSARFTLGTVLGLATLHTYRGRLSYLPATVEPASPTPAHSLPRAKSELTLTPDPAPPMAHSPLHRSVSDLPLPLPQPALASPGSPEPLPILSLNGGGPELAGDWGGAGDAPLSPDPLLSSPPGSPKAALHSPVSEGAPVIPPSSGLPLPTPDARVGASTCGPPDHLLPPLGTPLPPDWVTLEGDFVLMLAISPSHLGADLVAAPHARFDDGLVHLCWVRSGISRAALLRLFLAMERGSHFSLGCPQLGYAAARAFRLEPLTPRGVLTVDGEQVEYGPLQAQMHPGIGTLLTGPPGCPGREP
Test: Inhibition of recombinant N-terminal GST-tagged human SphK2 (1 to 618 residues) expressed in baculovirus expression system using sphingosine as substrate after 1 hr in presence of ATP by off-chip mobility shift assay
attributeMeasured: IC50 (nM)

{"structureNotation": "N[C@@H]1CO[C@@H](CCCCCCCCOCC2CCCCC2)[C@H]1O", "testSystem": "UniProt:Q9NRA0", "unitsText": "nM", "IC50": 1300}
{"structureNotation": "CCCCCCCCc1ccc(CC[C@@H]2OC[C@@H](N)[C@@H]2O)cc1", "testSystem": "UniProt:Q9NRA0", "unitsText": "nM", "IC50": 560}

1. CCCCCCCc1cccc(CC[C@@H]2OC[C@@H](N)[C@@H]2O)c1
2. CCCCCCc1ccc(CC[C@@H]2OC[C@@H](N)[C@@H]2O)cc1
Query: Could you point out whether the larger IC50 belongs to 1 or to 2 ? Lab log: write the label of the selected item as the result.
Response: 2
